Source of measurements: BindingDB's records for doi:10.1016/j.bmcl.2009.11.061

- protocol.summary: Inhibition of GSK3beta phosphorylation in human BT474 cells
result.type: IC50 (nM)
Numeric only. Scale: nM

Completed entries (count: 2):
>  <sample.smiles>
Cc1occc1-c1ncc(OC[C@@H](N)Cc2c[nH]c3ccccc23)cc1-c1cnc2[nH]nc(C)c2n1

>  <IC50 [nM]>
210

$$$$
>  <sample.smiles>
Cc1occc1-c1nc(N)c(OC[C@@H](N)Cc2ccccc2)cc1-c1cnc2[nH]nc(C)c2n1

>  <IC50 [nM]>
280

$$$$

Now examine the next entry.
Query string: Would you mind telling me what IC50 value was observed for Cc1occc1-c1nc(N)c(OC[C@@H](N)Cc2c[nH]c3ccccc23)cc1-c1cc2c(C)n[nH]c2cn1 ?
Result string: 680

---

- protocol.summary: Inhibition of GSK3beta phosphorylation in human BT474 cells
result.type: IC50 (nM)
Response body: numeric value in nM, unit text excluded.

Study these solved cases before continuing.
>  <sample.smiles>
Cc1nc(-c2ccoc2)c(-c2cnc3[nH]nc(C)c3n2)cc1OC[C@@H](N)Cc1c[nH]c2ccccc12

>  <result.type>
IC50

>  <unit.info>
nM

>  <obs.value>
280

$$$$
>  <sample.smiles>
Cc1occc1-c1nc(N)c(OC[C@@H](N)Cc2c[nH]c3ccccc23)cc1-c1ccc2[nH]nc(C)c2c1

>  <result.type>
IC50

>  <unit.info>
nM

>  <obs.value>
220

$$$$
>  <sample.smiles>
Cc1occc1-c1nc(N)c(OC[C@@H](N)Cc2c(Cl)[nH]c3ccccc23)cc1-c1cnc2[nH]nc(C)c2n1

>  <result.type>
IC50

>  <unit.info>
nM

>  <obs.value>
300

$$$$

Kindly consider the entry below.
Query string: Could you share which IC50 value was measured for Cc1occc1-c1nc(N)c(OC[C@@H](N)Cc2c[nH]c3ccccc23)cc1-c1cnc2[nH]nc(C)c2n1 ?
Result string: 560

---

We begin with a simple list: items and their reported IC50.
- protocol.summary: Inhibition of GSK3beta phosphorylation in human BT474 cells

>  <sample.smiles>
CCNc1nc(-c2ccoc2)c(-c2cnc3[nH]nc(C)c3n2)cc1OC[C@@H](N)Cc1ccccc1

>  <IC50>
> 10 µM

$$$$
>  <sample.smiles>
Cc1occc1-c1nc(N)c(OC[C@@H](N)Cc2c(C(N)=O)[nH]c3ccccc23)cc1-c1cnc2[nH]nc(C)c2n1

>  <IC50>
> 30 µM

$$$$

Query string: Entry under review: Cc1n[nH]c2ncc(-c3cc(OC[C@@H](N)Cc4c[nH]c5ccccc45)c(C#N)nc3-c3ccoc3)nc12 . Reported IC50?
Result string: > 10 µM
